Test Description: chemical genetic growth profiling, strain panel (AID 1159580);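 note: tested at 20 µM; growth read once vehicle control cultures reached saturation at 30 °C; 1 = growth at the plate median or of vehicle wells; lower values mean less growth of the strain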
Condition Label: S. cerevisiae deletion strains, growth OD, locus YKL190W, strain CNB1
Screen size: about 5,500 compounds; about 2,000 (36%) were called active. Another 18% or so got no clear call; they are omitted. Cut-off read from the data, not from the text of the source: active = normalized growth mostly below about 0.91 (no sharp cut-off); inconclusive = no clear call, values can overlap the other calls; inactive = mostly above about 0.92. The list shows a part of the results.
Allowed answers: active, inactive

// query How was Cc1cc(O)cc(=O)o1 classified in this test?
// result inactive

----------
Test Description: chemical genetic growth profiling, strain panel (AID 1159580)
Condition Label: S. cerevisiae deletion strains, growth OD, locus YAL013W, strain DEP1, stronger effect = lower value
The whole screen tested about 5,500 compounds, of which about 2,000 (36%) were called active. Not shown: some 18% with an inconclusive outcome. Some of the results follow.
Observed Property: normalized growth

# normalized growth of Cc1cccc(NC(=S)NC2CC3C=CC2C3)c1 (configuration not stated) = 0.939 (inactive)

Summary for this compound, COc1ccc2c(c1)c(CC(=O)O)c(C)n2C(=O)c1ccc(Cl)cc1 : normalized growth is 1.01 (inactive)

----------
Test Description: chemical genetic growth profiling, strain panel (AID 1159580)
Condition Label: S. cerevisiae deletion strains, growth OD, locus YHR082C, strain KSP1, stronger effect = lower value
The whole screen tested about 5,500 compounds, of which about 2,000 (36%) were called active. Roughly 18% stayed inconclusive and do not appear here. The list shows a part of the results.
Observed Property: normalized growth
The answer should be written as a number, with no unit following it.

Cc1nc(-c2cccnc2)nc(NCc2ccccc2)c1Cl :: 0.935
Cc1nc(-c2ccccn2)nc(SCc2ccccc2)c1Cl :: 0.849
Nc1ccc(Sc2ccccc2)nc1Sc1ccccc1 :: 0.948

Looking up CCOC(=O)c1cc(CC)sc1NC(=O)c1ccc([N+](=O)[O-])o1 , I found its normalized growth recorded as 0.202

Measured normalized growth, OC1CCN(c2cc(C(F)(F)F)nc3cc(Cl)cc(Cl)c23)CC1 : 1.06

----------
Property: normalized growth; scope: individual compounds
Test Description: chemical genetic growth profiling, strain panel (AID 1159580)
Condition Label: S. cerevisiae deletion strains, growth OD, locus YNL222W, strain SSU72, stronger effect = lower value
Screen size: about 5,500 compounds; about 2,000 (36%) were called active. Inconclusive results (about 18%) are left out. The list shows a part of the results.
Response field accepts a number only; no unit should be typed.

Value of normalized growth reported for the compound O=C(Nc1ccc(Cl)cc1)SCc1c(Cl)cccc1Cl is 0.979

Recorded normalized growth (compound Cc1csc(NC(=O)Nc2ccc(C(F)(F)F)cc2)c1 ): 0.967

----------
Test Description: chemical genetic growth profiling, strain panel (AID 1159580)
Condition Label: S. cerevisiae deletion strains, growth OD, locus YHR030C, strain SLT2, stronger effect = lower value
Out of some 5,500 compounds screened, about 2,000 (36%) were called active. Roughly 18% stayed inconclusive and do not appear here. Some of the results follow.
Observed Property: normalized growth
Reply with the value as a number alone.

N#CC(NCc1ccccc1)c1ccc(Cl)c(Cl)c1 (stereo unspecified) :: 0.887
O=[N+]([O-])c1cnc(Sc2nnc(SCc3cccc(C(F)(F)F)c3)s2)s1 :: 0.131
O=C(O/N=C\c1ccc2c(c1)OCO2)c1ccccc1Br :: 0.315
FC(F)(F)c1cccc(CSc2n[nH]c(=S)s2)c1 :: 0.728

normalized growth recorded for this compound, O=[N+]([O-])c1ccccc1SCc1n[nH]c(=S)n1-c1cccc(C(F)(F)F)c1 , is 1.04

Query C=C/C(C)=C\CC1C(C)(O)CCC2C(C)(C)CCCC21C (stereo unspecified) yields normalized growth of 0.056

S=C(NNC(=S)NC1CC2C=CC1C2)Nc1ccc(Br)c(Cl)c1 (stereo unspecified) yielded normalized growth of 0.889

----------
Test Description: chemical genetic growth profiling, strain panel (AID 1159580)
Condition Label: S. cerevisiae deletion strains, growth OD, locus YDR392W, strain spt3
Screen size: about 5,500 compounds; about 2,000 (36%) were called active. About 18% were inconclusive and are not listed. Rule as the data show it: active = normalized growth mostly below about 0.91 (no sharp cut-off); inconclusive = no clear call, values can overlap the other calls; inactive = mostly above about 0.92. Some of the results follow.
I would appreciate it if you answered using one of these outcomes: 1 for active, -1 for inactive

// query What is the recorded call for this molecule in the test? NC(N)=N/N=C/c1c(Cl)cccc1Cl
// result -1

// query Which outcome was entered for the molecule C#C[C@]1(OC(C)=O)CCC2C3CCC4=C/C(=N\O)CCC4C3CC[C@@]21CC (stereo not given in full) in this test?
// result 1

// query Can you look up the reported call for CC(C)=CCCC1(C)C=Cc2c(O)c3c(c(CC=C(C)C)c2O1)OC12C(=CCCC1C(C)(C)O[C@@]2(C/C=C(\C)C(=O)O)C(=O)O)C3=O (stereo not given in full) for me?
// result 1

// query // outcome(item) with item = OC(CCN1CCCCC1)(c1ccccc1)C1CC2C=CC1C2 (stereo not given)
// result -1

----------
Test Description: chemical genetic growth profiling, strain panel (AID 1159580);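 note: tested at 20 µM; growth read once vehicle control cultures reached saturation at 30 °C; 1 = growth at the plate median or of vehicle wells; lower values mean less growth of the strain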
Condition Label: S. cerevisiae deletion strains, growth OD, locus YHR200W, strain rpn10, stronger effect = lower value
Out of some 5,500 compounds screened, about 2,000 (36%) were called active. Not shown: some 18% with an inconclusive outcome. This is one part of the list.
Observed Property: normalized growth
// no unit, no text: just the number

Below, 8 compounds whose answers are already recorded.
Nc1c2ccccc2nc2ccccc12 :: 0.674
COC(=O)/C(C)=C\CC12OC(C)(C)C3CC(C=C4C(=O)c5c(O)c6c(c(CCC(C)(C)Cl)c5OC431)OC1(C)CCC(=C(C)C)C6C1)C2=O (stereo not drawn) :: 0.984
C#C[C@]1(O)CCC2C3CCC4=C(CCC(=O)C4)C3CC[C@@]21C (stereo partly drawn) :: 1
CC(C)CC(N(C)C)C1(c2ccc(Cl)cc2)CCC1 (stereo not drawn) :: 1.02
C#C[C@]1(OC(C)=O)CCC2C3CCC4=CC(=O)CC[C@@H]4C3CC[C@@]21C (stereo partly drawn) :: 0.963
C[C@@H]1OC(O[C@H]2[C@H](OC(=O)[C@]34CCC(C)(C)CC3C3=CCC5[C@@]6(C)CC[C@H](OC7O[C@@H](C)[C@H](O[C@@H]8OC[C@@H](O)[C@H](O)[C@H]8O)[C@@H](O)[C@H]7O)C(C)(C)C6CC[C@@]5(C)[C@]3(C)CC4O)OC[C@H](O)[C@H]2O)[C@H](O)[C@H](O)[C@H]1O[C@@H]1O[C@H](CO)[C@@H](O)[C@H](O)[C@H]1O (stereo partly drawn) :: 0.974
C[C@H]1[C@H](C)CC[C@]2(CO)CC[C@]3(C)C(=CCC4[C@@]5(C)CC[C@H](O)C(C)(C)C5CC[C@]43C)[C@H]12 (stereo partly drawn) :: 1.01
C[C@@H]1C(=O)O[C@H]2[C@H]1CC[C@@]1(C)C=CC(=O)[C@@]3(C)O[C@@]213 :: 1.02

The compound listed as COc1cccc(OC)c1OCCNCC1COc2ccccc2O1 (stereo not drawn) shows normalized growth equal to 0.977

The reported normalized growth of the compound Nc1c2c(nc3ccccc13)CCCC2 was 1.01

Measured normalized growth, CC1C(=O)OC2C1CCC1(C)C=CC(=O)C3(C)OC213 (stereo not drawn) : 1

Input C[C@]12CCC(=O)C=C1CCC1C2[C@@H](O)C[C@@]2(C)C1CC[C@]2(O)C(=O)CO (stereo partly drawn) . Output normalized growth: 1.01

normalized growth recorded for this compound, CC(=O)NCc1c(I)c(NC(C)=O)c(I)c(C(=O)O)c1I , is 0.988

----------
Test Description: chemical genetic growth profiling, strain panel (AID 1159580);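 note: tested at 20 µM; growth read once vehicle control cultures reached saturation at 30 °C; 1 = growth at the plate median or of vehicle wells; lower values mean less growth of the strain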
Condition Label: S. cerevisiae deletion strains, growth OD, locus YPR163C, strain tif3, stronger effect = lower value
Among all 5,500 compounds or so, about 2,000 (36%) were called active. Roughly 18% stayed inconclusive and do not appear here. The list shows a part of the results.
Doc: threshold 1 (exclusive). Items with normalized growth beneath it return rule met; others return rule not met.

C[C@@H]1OC(O[C@H]2[C@H](OC(=O)[C@]34CCC(C)(C)CC3C3=CCC5[C@@]6(C)CC[C@H](OC7O[C@@H](C)[C@H](O[C@@H]8OC[C@@H](O)[C@H](O)[C@H]8O)[C@@H](O)[C@H]7O)C(C)(C)C6CC[C@@]5(C)[C@]3(C)CC4O)OC[C@H](O)[C@H]2O)[C@H](O)[C@H](O)[C@H]1O[C@@H]1O[C@H](CO)[C@@H](O)[C@H](O)[C@H]1O (stereo partly drawn) :: rule met

// query Please check: normalized growth for CC1(C)CC[C@@]2(C(=O)O)C(C1)C1=CCC3[C@@]4(C)CC[C@H](O)C(C)(C)C4CC[C@@]3(C)[C@]1(C)C[C@@H]2O (stereo partly drawn) , strictly under 1 or not?
// result rule not met

----------
Test Description: chemical genetic growth profiling, strain panel (AID 1159580);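 note: tested at 20 µM; growth read once vehicle control cultures reached saturation at 30 °C; 1 = growth at the plate median or of vehicle wells; lower values mean less growth of the strain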
Condition Label: S. cerevisiae deletion strains, growth OD, locus YNR030W, strain Alg12, stronger effect = lower value
In all, about 5,500 compounds went through this assay and about 2,000 (36%) were called active. Inconclusive results (about 18%) are left out. The list shows a part of the results.
So basically: is normalized growth under 0.9? Then Criterion met. Not under? Then Criterion not met.

COc1ccc(-c2n[nH]c(=S)n2-c2cccc(OC)c2)cc1 :: Criterion not met
CCCc1nc(-c2ccccn2)[nH]c(=O)c1CC1CC1 :: Criterion met
O=[N+]([O-])c1ccccc1SCc1n[nH]c(=S)n1-c1cccc(C(F)(F)F)c1 :: Criterion not met
O=C(O)/C=C/C(=O)Nc1ccc(-n2nc(C(F)(F)F)cc2C(F)(F)F)cc1 :: Criterion not met
CCN(CC)c1ccc(NC(=O)c2c(F)cccc2F)c(N(CC)CC)n1 :: Criterion not met

Now, please, on to the next compound.
// query In plain terms, does CSC(=CC(=O)c1ccc(Cl)cc1)SC come in under 0.9 for normalized growth?
// result Criterion met
